Values from the supplement of paper PMC6965134

Recorded measurements of TIMS collisional cross section, one per entry
Experiment: TIMS collisional cross section (CCS, N2) of the lipid ion; higher = larger ion cross section
Settings: sample type: Liver; ionization mode: positive; one isomer drawn
value_type: TIMS collisional cross section (Å²)

>>> result_number("CCCCCCCCCCCCCCCCC(=O)OC[C@@H](COC(=O)CCCCCCCCCCCCCCC)OC(=O)CCCCCCCCCCCCCCC [TG 16:0_16:0_17:0] (ion (formula + adduct): [C52H100O6+NH4] 1+)")
317.6
>>> result_number("CCCCC/C=C\\C/C=C\\CCCCCCCCCC(=O)OC[C@@H](COC(=O)CCCCCCC/C=C\\CCCCCC)OC(=O)CCCCCCC/C=C\\CCCCCCCC [TG 16:1_18:1_20:2] (ion (formula + adduct): [C57H102O6+NH4] 1+)")
324.7
>>> result_number("CCCCCCCCCCCCCCCCCCCCCC(=O)OC[C@@H](COC(=O)CCCCCCCCCCCCCCC)OC(=O)CCCCCCCCCCCCCCCCCC [TG 16:0_19:0_22:0] (ion (formula + adduct): [C60H116O6+NH4] 1+)")
340.8
>>> result_number("CCCCC/C=C\\C/C=C\\CCCCCCCC(=O)OC[C@@H](COC(=O)CCCCCCCCCCC)OC(=O)CCCCCCCCCCCCC [TG 12:0_14:0_18:2] (ion (formula + adduct): [C47H86O6+NH4] 1+)")
295.4
>>> result_number("CCCCCCCCCCCCC/C=C/[C@@H](O)[C@H](COP(=O)([O-])OCC[N+](C)(C)C)NC(=O)CCCCCCCCCCCCCCC [SM d18:1_16:0@] (ion (formula + adduct): [C39H79N2O6P+H] 1+)")
285
>>> result_number("CCCCCCCCCCCCCCCCCCCCCC(=O)OC[C@@H](COC(=O)CCCCCCCCCCCCCCCCC)OC(=O)CCCCCCCCCCCCCCCCCCC [TG 18:0_20:0_22:0] (ion (formula + adduct): [C63H122O6+NH4] 1+)")
349.3
>>> result_number("CCCCC/C=C\\C/C=C\\C/C=C\\CCCCCCC(=O)OC[C@@H](O)COP(=O)(O)OCCN [LPE 20:3] (ion (formula + adduct): [C25H46NO7P+H] 1+)")
217.2
>>> result_number("CCCCC/C=C\\C/C=C\\C/C=C\\C/C=C\\CCCCCC(=O)OC[C@@H](COC(=O)CCCCCCC/C=C\\CCCCCCCC)OC(=O)CCCCCCC/C=C\\C/C=C\\CCCCC [TG 18:1_18:2_22:4] (ion (formula + adduct): [C61H104O6+NH4] 1+)")
332.5
>>> result_number("CCCCC/C=C\\C/C=C\\C/C=C\\CCCCC(=O)O[C@H](COC(=O)CCCCCCC/C=C\\C/C=C\\CCCCC)COP(=O)(O)OCCN [PE 18:2_18:3] (ion (formula + adduct): [C41H72NO8P+H] 1+)")
270.2
